Test system: 786-0 renal
Assay: NCI-60 one-dose screen, 48 h
Settings: 10 µM
Experimental: Cells are grown in 96 well plates and exposed to the test compound for 48 hours. Compounds are tested at a single concentration, which is 10^-5 M for most compounds. The reported endpoint is percent growth (GI% or GIPRCNT), where numbers from 0 - 100% represent growth inhibition, and numbers from -100% - 0 represent cell death. For example, a value of 40 represents 60% growth inhibition. A value of 0 means no net growth occurred over the course of the experiment. […]
About 83,000 compounds went through this panel and 20% of them were active in at least one assay; those are over-represented in the sample as a whole. Calls of active or inactive are those of the source. Rule for the calls: active = growth percent below 10; inactive = the rest.
Tick one outcome: active, inactive

Past entries and their recorded results:
>  <molecule>
COc1ccc(C(=O)COc2cccc(/C=C3\Cc4ccccc4C3=O)c2)cc1

>  <qualitative_label>
inactive

$$$$
>  <molecule>
COC1=CC(=O)OC(c2ccc(OC)cc2)C1 (stereo unspecified)

>  <qualitative_label>
inactive

$$$$
>  <molecule>
CC(C)c1cc(N=O)cc(C(C)C)c1O

>  <qualitative_label>
inactive

$$$$
>  <molecule>
COc1cc(-c2nn(-c3ccc(NC(=O)NCCNS(=O)(=O)c4ccc(F)cc4)cc3)cc2-c2ccncc2)ccc1Cl

>  <qualitative_label>
active

$$$$
>  <molecule>
Nc1ccn(Cc2nnc(CCC(=O)c3nc4ccccc4[nH]3)o2)c(=O)n1

>  <qualitative_label>
inactive

$$$$
>  <molecule>
COc1ccc(-c2cc(-c3ccc(Cl)cc3)nc(SCCCC(=O)NO)n2)cc1OC

>  <qualitative_label>
active

$$$$
>  <molecule>
COc1cc(-c2nn(-c3ccc(NC(=O)NCCCNC(=O)c4ccccc4)cc3)cc2-c2ccncc2)ccc1Cl

>  <qualitative_label>
inactive

$$$$
>  <molecule>
COc1ccc2cc(-c3nc4ccccc4s3)c(Cl)nc2c1OC

>  <qualitative_label>
inactive

$$$$

Problem: Outcome? Cc1c2cnccc2c(C)c2c1c1cc(O)ccc1n2C(C)C
Result: active

Problem: Same question for CC(C)Cc1ccc([C@H](C)C(=O)O)cc1 please.
Result: inactive

Problem: Follow-up entry: CN1C(=O)C2(Nc3cc(Cl)ccc3S2)c2cc(Cl)ccc21 (stereo unspecified)
Result: inactive

====

tested on: EKVX NSCLC; experiment: NCI-60 one-dose screen, 48 h (100 = growth as untreated, 0 = no growth, -100 = all killed); settings: 10 µM
The panel holds about 83,000 compounds, 20% with a hit somewhere; the sample as a whole holds those more often.
Param threshold (90%) applies to growth; output t when value >= threshold, f when value < threshold.

Below are worked cases with known answers.
>  <compound>
Clc1ccc2c(c1)C(N1CCNCC1)=Nc1ccccc1O2

>  <subject_of_test>
EKVX NSCLC

>  <qualitative_label>
f

$$$$
>  <compound>
COc1cc(/C=C/c2cc(/C=C/c3ccc(O)c(OC)c3)n(C(=O)Nc3ccccc3Cl)n2)ccc1O

>  <subject_of_test>
EKVX NSCLC

>  <qualitative_label>
f

$$$$
>  <compound>
O=C(CSc1nccc(Nc2cccc3ccccc23)n1)c1ccc(Cl)cc1

>  <subject_of_test>
EKVX NSCLC

>  <qualitative_label>
f

$$$$
>  <compound>
COc1ccc(-c2nn(-c3cccc(Cl)c3)cc2-c2cc(-c3cccs3)[nH]c(=S)n2)cc1

>  <subject_of_test>
EKVX NSCLC

>  <qualitative_label>
f

$$$$
>  <compound>
Cc1ccccc1N1C(=O)c2cc(S(N)(=O)=O)c(Cl)cc2NC1C (stereo unspecified)

>  <subject_of_test>
EKVX NSCLC

>  <qualitative_label>
t

$$$$
>  <compound>
CCN(CC)CCCC(C)Nc1c2ccc(Cl)cc2nc2ccc(OC)cc12 (stereo unspecified)

>  <subject_of_test>
EKVX NSCLC

>  <qualitative_label>
f

$$$$
>  <compound>
CCOC(=O)c1cc(C(=O)c2cc(OC)cc(OC)c2)n2nc(C)ccc12

>  <subject_of_test>
EKVX NSCLC

>  <qualitative_label>
f

$$$$
>  <compound>
COc1cc(/C=C2\CCCC3C2=Nc2ccccc2NC3c2cc(OC)c(OC)c(OC)c2)cc(OC)c1OC (stereo unspecified)

>  <subject_of_test>
EKVX NSCLC

>  <qualitative_label>
f

$$$$
>  <compound>
O=C(CCc1nnc2sc(-c3cc(O)c(O)c(O)c3)nn12)c1nc2ccccc2[nH]1

>  <subject_of_test>
EKVX NSCLC

>  <qualitative_label>
t

$$$$
>  <compound>
CCOC(=O)c1cc(C(=O)c2ccc(OC)c(OC)c2)n2ccncc12

>  <subject_of_test>
EKVX NSCLC

>  <qualitative_label>
t

$$$$

// switching to the query compound
Problem: growth >= 90% for O=c1[nH]c(=O)n(C2C[C@H](O)[C@@H](CO)O2)cc1C(F)(F)F (stereo partly specified) ?
Result: t

Data credit: PubChem BioAssay (NCI)
